Biological target: Integrin alpha-V/beta-6 (Homo sapiens, UniProt P06756+P18564)
Sequence (P06756 31-889 limits assumed): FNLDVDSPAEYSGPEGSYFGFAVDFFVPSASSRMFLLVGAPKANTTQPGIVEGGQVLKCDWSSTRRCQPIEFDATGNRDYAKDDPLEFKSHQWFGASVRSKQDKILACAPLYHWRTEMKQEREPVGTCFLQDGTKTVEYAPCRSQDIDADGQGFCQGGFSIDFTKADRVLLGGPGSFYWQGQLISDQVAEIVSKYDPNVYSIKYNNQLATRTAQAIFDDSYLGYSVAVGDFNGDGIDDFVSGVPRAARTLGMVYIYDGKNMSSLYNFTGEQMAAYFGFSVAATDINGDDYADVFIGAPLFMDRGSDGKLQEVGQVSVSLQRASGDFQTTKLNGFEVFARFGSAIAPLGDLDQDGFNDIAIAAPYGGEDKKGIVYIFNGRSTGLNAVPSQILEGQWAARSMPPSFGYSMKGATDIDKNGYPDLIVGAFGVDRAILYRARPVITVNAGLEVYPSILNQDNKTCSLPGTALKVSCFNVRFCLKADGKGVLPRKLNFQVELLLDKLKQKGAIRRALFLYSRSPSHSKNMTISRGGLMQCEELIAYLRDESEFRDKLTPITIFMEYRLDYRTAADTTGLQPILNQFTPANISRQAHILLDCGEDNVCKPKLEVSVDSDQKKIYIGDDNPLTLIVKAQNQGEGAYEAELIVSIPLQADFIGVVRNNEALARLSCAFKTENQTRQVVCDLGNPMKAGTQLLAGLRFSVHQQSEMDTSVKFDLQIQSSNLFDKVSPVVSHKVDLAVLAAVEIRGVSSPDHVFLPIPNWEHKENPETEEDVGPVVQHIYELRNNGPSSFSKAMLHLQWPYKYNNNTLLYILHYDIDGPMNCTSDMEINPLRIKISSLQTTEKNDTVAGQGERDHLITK
Sequence (P06756 891-1048 limits assumed): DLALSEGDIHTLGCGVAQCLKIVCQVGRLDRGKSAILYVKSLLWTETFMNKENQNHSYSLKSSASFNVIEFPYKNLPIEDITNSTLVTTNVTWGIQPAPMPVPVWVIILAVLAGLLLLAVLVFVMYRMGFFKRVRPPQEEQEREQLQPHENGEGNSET
Sequence (P18564 22-788 limits assumed): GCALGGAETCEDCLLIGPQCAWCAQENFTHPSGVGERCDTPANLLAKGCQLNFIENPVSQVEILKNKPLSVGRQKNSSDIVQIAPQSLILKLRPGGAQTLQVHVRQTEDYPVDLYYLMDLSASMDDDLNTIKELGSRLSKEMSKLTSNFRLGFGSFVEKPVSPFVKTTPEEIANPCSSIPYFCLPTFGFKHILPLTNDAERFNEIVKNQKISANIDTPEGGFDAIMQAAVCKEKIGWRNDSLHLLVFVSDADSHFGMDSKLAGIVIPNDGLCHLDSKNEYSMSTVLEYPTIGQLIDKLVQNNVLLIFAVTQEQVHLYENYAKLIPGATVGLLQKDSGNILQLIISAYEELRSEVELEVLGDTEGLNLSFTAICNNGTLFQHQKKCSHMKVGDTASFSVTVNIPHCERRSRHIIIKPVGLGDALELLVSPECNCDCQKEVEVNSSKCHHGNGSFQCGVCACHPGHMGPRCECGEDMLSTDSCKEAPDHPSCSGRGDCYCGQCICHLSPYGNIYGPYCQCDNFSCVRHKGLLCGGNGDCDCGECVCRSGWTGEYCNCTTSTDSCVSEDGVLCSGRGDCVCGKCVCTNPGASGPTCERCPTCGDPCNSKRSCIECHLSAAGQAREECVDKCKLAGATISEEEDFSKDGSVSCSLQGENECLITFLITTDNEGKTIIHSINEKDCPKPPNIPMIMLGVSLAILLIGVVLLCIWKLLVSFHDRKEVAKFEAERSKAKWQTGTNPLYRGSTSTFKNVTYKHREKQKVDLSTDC
Experiment: Inhibition of latency-associated peptide/TGF-beta binding to recombinant human integrin alphaV (Phe31 to Val992 residues) beta6 (Gly22 to Asn707 residues) expressed in CHO cells by ELISA based solid phase binding assay
API: label(entry) gives Y if the entry's IC50 is strictly smaller than 700 nM; on equality or larger values it gives N.

molecule	measuredTarget	className
CC1(C)NC(=O)[C@@H](Cc2ccccc2)NC(=O)[C@H](CC(=O)O)NC(=O)CNC(=O)[C@H](CCCNC(=N)N)NC1=O	Integrin alpha-V/beta-6 (Homo sapiens, UniProt P06756+P18564)	Y
N=C(N)NCCC[C@@H]1NC(=O)CC2(CCCCC2)CNC(=O)[C@@H](Cc2ccccc2)NC(=O)[C@H](CC(=O)O)NC(=O)CNC1=O	Integrin alpha-V/beta-6 (Homo sapiens, UniProt P06756+P18564)	N
C[Si]1(C)C[C@@H]2C(=O)N[C@@H](CCCNC(=N)N)C(=O)NCC(=O)NC(CC(=O)O)C(=O)NC(Cc3ccccc3)C(=O)N2C1 (single isomer, unassigned)	Integrin alpha-V/beta-6 (Homo sapiens, UniProt P06756+P18564)	Y
N=C(N)NCCC[C@@H]1NC(=O)C2(CCCCC2)NC(=O)[C@@H](Cc2ccccc2)NC(=O)[C@H](CC(=O)O)NC(=O)CNC1=O	Integrin alpha-V/beta-6 (Homo sapiens, UniProt P06756+P18564)	Y
